# Tested on: AMPK
# test.summary: AMPK activation effect (AMPK [pT172] ELISA) in MCF7 cells
# Format: cell-based, human
# condition.details: concentration at which AMPK activation reached 150%, 24 hours
Counter-ions that a name gives are not always drawn.
List of AC150 values.
Field: numeric (µM). Do not append units.

Past entries and their recorded results:
molecule | AC150 (µM)
Cl.N=C(NCc1ccc(C(F)(F)F)cc1)NC(=N)N1CC=CC1 | 9.0
CC1CCCC(C)N1C(=N)NC(=N)Nc1cccc(C(F)(F)F)c1.Cl (stereo not shown) | 0.8
CC1CCCC(C)N1C(=N)NC(=N)Nc1ccc(Br)cc1 (stereo not shown) [Example 97, hydrochloride] | 4.2
Cl.N=C(NCc1cccc(OC(F)(F)F)c1)NC(=N)N1CC=CC1 | 8.4
CC1=CCN(C(=N)NC(=N)Nc2ccc(Cl)cc2)C1.Cl | 4.7

Lookup result for CC1CCCN(C(=N)NC(=N)NCc2cccc(C(F)(F)F)c2)C1.Cl (stereo not shown) ; measured AC150: 2.8
